Recorded values, source patent US8772499B2.

// reported log10 IC50 for each item listed
Target: human TRPV3 (Homo sapiens, UniProt Q8NET8)
Construct: expressed in transfected cells
Sequence (Q8NET8 1-790): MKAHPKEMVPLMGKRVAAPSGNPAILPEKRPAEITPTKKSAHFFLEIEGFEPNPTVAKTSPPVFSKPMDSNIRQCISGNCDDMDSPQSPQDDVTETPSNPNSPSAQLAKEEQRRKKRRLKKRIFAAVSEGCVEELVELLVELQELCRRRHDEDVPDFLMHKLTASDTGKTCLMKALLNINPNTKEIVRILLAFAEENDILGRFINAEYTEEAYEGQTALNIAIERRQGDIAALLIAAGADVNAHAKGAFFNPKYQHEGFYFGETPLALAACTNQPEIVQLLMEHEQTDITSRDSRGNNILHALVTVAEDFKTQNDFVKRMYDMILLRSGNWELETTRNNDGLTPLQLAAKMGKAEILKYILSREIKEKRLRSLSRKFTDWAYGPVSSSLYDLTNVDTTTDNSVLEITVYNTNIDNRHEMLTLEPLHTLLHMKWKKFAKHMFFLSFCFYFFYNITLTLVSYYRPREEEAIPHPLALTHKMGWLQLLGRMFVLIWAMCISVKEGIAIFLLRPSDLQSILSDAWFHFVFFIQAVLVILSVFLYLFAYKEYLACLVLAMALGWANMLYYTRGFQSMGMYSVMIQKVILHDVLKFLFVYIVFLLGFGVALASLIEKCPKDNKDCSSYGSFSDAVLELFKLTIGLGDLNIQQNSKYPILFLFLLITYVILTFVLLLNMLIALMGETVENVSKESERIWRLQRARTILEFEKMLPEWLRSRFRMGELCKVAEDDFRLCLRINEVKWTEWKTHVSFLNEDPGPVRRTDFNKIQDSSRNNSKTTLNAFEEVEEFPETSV
Test: In vitro antagonism of recombinant human TRPV3 activation (FLIPR Tetra calcium assay)
Format: cell-based
Conditions: HEK293 cells stably expressing human TRPV3; agonist 2-APB at 80 μM; actual measured value shown parenthetically; in most cases average of at least two runs; read-out: IC50
The figures below represent log10 of IC50, where IC50 is stated in µM.

// below: answered compounds
OC(c1ccccn1)C1(C2CCCCC2)CCC1 (stereo not shown)    0.59
OC(c1ccccn1)C1(c2cccc(F)c2)CCOCC1 (stereo not shown)    0.88
OC(CC1(c2ccc(Cl)c(Cl)c2)CCC1)c1ccccn1 (stereo not shown)    0.29
OC(c1ccccn1)C1(C2CCCOC2)CCC1 (stereo not shown)    0.89
OC1CC(c2cc(C(F)(F)F)ccn2)(C(O)c2ccccn2)C1 (stereo not shown) [Example 282]    -0.13
OC(c1ccccn1)C1(c2ccc(OC(F)(F)F)cc2)CC2(C1)OCCO2 (stereo not shown)    0.71

For reference, reported log10 IC50 for OC(c1ccccn1)C1(c2ccc(F)c(C(F)(F)F)c2)CCC1 (stereo not shown) stands at -0.51

For reference, reported log10 IC50 for OC(c1ccccn1)C1(c2ccc(C(F)(F)F)cn2)CCC1 (stereo not shown) stands at 1.29

For reference, reported log10 IC50 for O[C@H](c1ncccn1)C1(c2ccc(Cl)c(Cl)c2)CCC1 stands at -0.13

For reference, reported log10 IC50 for O[C@H](c1ccccn1)C1(c2ccc(Cl)c(Cl)c2)CCC1 stands at -0.51

====

Assay: In vitro human microsomal stability assay
Type: in vitro ADME
Settings: human, microsomes, 0.5 h, 0.5 μM, pH 7.4
Mark T only for HUMAN MICROSOMAL STABILITY (% REMAINING AFTER 30 MINUTES) values smaller than 60%; exact matches and larger values are F.

Record NC1CCC1C(O)C1(c2cccc(C(F)(F)F)c2)CCC1 (stereo not drawn) : is its HUMAN MICROSOMAL STABILITY (% REMAINING AFTER 30 MINUTES) strictly below 60%?
F

Record OC(c1ccccn1)C1(c2nc3ccc(Cl)cc3o2)CCC1 (stereo not drawn) : is its HUMAN MICROSOMAL STABILITY (% REMAINING AFTER 30 MINUTES) strictly below 60%?
T

Record OC(c1ccccn1)C1(c2ccc(OC(F)(F)F)cc2)CCCO1 (single isomer, unassigned) [Example 94] : is its HUMAN MICROSOMAL STABILITY (% REMAINING AFTER 30 MINUTES) strictly below 60%?
T

Record CC1(O)CC(c2ccc(OC(F)(F)F)cc2)(C(O)c2ccccn2)C1 (single isomer, unassigned) [Example 203] : is its HUMAN MICROSOMAL STABILITY (% REMAINING AFTER 30 MINUTES) strictly below 60%?
F

Record OC(c1ccccn1)C1(c2ccc(F)c(C(F)(F)F)c2)CCC1 (stereo not drawn) : is its HUMAN MICROSOMAL STABILITY (% REMAINING AFTER 30 MINUTES) strictly below 60%?
T

Record CC(C)(C)OC(=O)N1CCC(c2ccc(OC(F)(F)F)cc2)(C(O)c2ccccn2)CC1 (stereo not drawn) : is its HUMAN MICROSOMAL STABILITY (% REMAINING AFTER 30 MINUTES) strictly below 60%?
T

Record OC(c1ccccn1)C1(c2ccncc2)CCC1 (stereo not drawn) : is its HUMAN MICROSOMAL STABILITY (% REMAINING AFTER 30 MINUTES) strictly below 60%?
F

Record OC1CC(c2ccnc(C(F)(F)F)c2)(C(O)c2ccccn2)C1 (stereo not drawn) [Example 306] : is its HUMAN MICROSOMAL STABILITY (% REMAINING AFTER 30 MINUTES) strictly below 60%?
F

Record Cc1ccc(C2(C(O)c3ccccn3)CCC2)cc1 (stereo not drawn) : is its HUMAN MICROSOMAL STABILITY (% REMAINING AFTER 30 MINUTES) strictly below 60%?
T
